This collection of values is drawn from PubChem BioAssay AID492948.

# Protocol: qHTS Assay for Agonists of the Relaxin Receptor RXFP1: V1B Hit Validation;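 note: counter-screen in HEK293 cells expressing V1B rather than RXFP1 for selectivity; nearly all actives have a fitted effect of over 65% in size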;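 for activation: cAMP accumulation with PDE4 inhibitor Ro 20-1724 present during compound exposure; 0% = buffer alone basal and 100% = 29 nM porcine relaxin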
# Experimental Context: HEK293 V1B cells, cAMP TR-FRET, 30 min; series mostly up to 115 µM
Results filed as inconclusive are left out. Activity calls are given as the source filed them. Calls come from the whole dose curve; as a rule, active = well fitted activation curve with a large enough effect; inconclusive = small, poorly fitted or top-dose-only effect; inactive = no such curve, though single readings can be large or run the other way.
Possible outcomes: label 1 for active, label 0 for inactive

[[record]]
molecule = "O=C(O)c1sc2cc(Cl)ccc2c1Cl"
class = "label 1"

[[record]]
molecule = "CCC(Oc1cc(Cl)ccc1Cl)C(=O)N1CCC2(CC1)OCCO2 (stereo not given)"
class = "label 0"

[[record]]
molecule = "Cn1c(O)c(N=Nc2cccc(S(=O)(=O)N3CCOCC3)c2)c(=O)n(C)c1=O"
class = "label 1"

[[record]]
molecule = "O=C1OCc2cc(N=Nc3c(O)[nH]c(=O)[nH]c3=O)ccc21"
class = "label 1"

[[record]]
molecule = "O=c1[nH]c(O)c(N=Nc2ccc([N+](=O)[O-])cc2)c(=O)[nH]1"
class = "label 1"

